test system: Human immunodeficiency virus 1; assay: Antiviral activity against HIV1 subtype CRF01-AE isolate WAN infected in human PBMC assessed as assessed as reduction in p24 level after 7 days by ELISA; type: functional; conditions: Human immunodeficiency virus 1, subtype CRF01-AE isolate WAN, 168 h
readoutKind: pEC50
Reminder that pEC50 is minus the log10 of a molar concentration.

Give the measured pEC50 of `COc1ccccc1NC(=O)c1c(N)cccc1S(=O)(=O)c1ccc([N+](=O)[O-])cc1` .
5.53

---

experiment: 1-octanol/water partition co-efficient, log P of the compound after 7 hrs by shake-flask method; type: physicochemical
readoutKind: logP at 7 h
Could you keep your reply to the number by itself?

GET /values?readout=logP at 7 h&item= `COc1ccccc1NC(=O)c1c(N)cccc1S(=O)(=O)c1ccc([N+](=O)[O-])cc1`
2.4
